Measured values drawn from patent US20260028365A1 for this set.

TARGET_OF_ASSAY: JH2 domain of human Tyk2 (Homo sapiens (Human))
Sequence (P29597 575-876): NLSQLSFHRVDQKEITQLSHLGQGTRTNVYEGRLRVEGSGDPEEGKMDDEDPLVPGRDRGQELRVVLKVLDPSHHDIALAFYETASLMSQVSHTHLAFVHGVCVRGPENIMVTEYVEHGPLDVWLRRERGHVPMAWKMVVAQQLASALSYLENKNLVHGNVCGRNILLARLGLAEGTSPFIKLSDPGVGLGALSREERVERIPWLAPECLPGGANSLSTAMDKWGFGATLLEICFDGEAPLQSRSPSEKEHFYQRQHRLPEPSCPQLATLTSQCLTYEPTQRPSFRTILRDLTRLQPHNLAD
MEASUREMENT_PROTOCOL: JH2 Biochemical Assay (TR-FRET probe displacement)
Assay type: binding
CONDITION_INFO: TR-FRET probe displacement, JH2 domain of human Tyk2
QUANTITY_NAME: IC50

Illustrative cases are given below, each with its answer.
{"MOLECULE": "CC(=O)Nc1cc(Nc2ccnc(C(C)(F)F)n2)c(-c2ccn(C)n2)cn1", "IC50": "≤ 10 nM"}
{"MOLECULE": "Cc1cc(Nc2cc(NC(N)=O)ncc2-c2ccn(C)n2)nc(C(C)(F)F)n1", "IC50": "≤ 10 nM"}
{"MOLECULE": "COCCOc1cnc(NC(C)=O)cc1Nc1cncc(C(F)CF)n1 (stereo not shown)", "IC50": "10 to 100 nM"}

Item: CC(=O)Nc1cc(Nc2cc(C)nc(C(C)(F)F)n2)c(-c2cnc(N(C)C)cn2)cn1 | IC50: ≤ 10 nM

----------
TARGET_OF_ASSAY: Tyk2 (Homo sapiens (Human))
MEASUREMENT_PROTOCOL: pSTAT4 Cell Assay (MSD, NK92 cells)
Type: cell-based
CONDITION_INFO: MSD
# maps each entry to its IC50

Consider the reported IC50 for these molecules:
{"MOLECULE": "CC(=O)Nc1cc(Nc2cccc(C(F)CF)n2)c(-c2ccn(C)n2)cn1 (centres unmarked) [Example 149]", "TARGET_OF_ASSAY": "Tyk2 (Homo sapiens (Human))", "IC50": "≤ 0.01 µM"}
{"MOLECULE": "CCOc1cnc(NC(C)=O)cc1Nc1cc(OC2CC2)nc(C(C)(F)F)n1 [Example 490]", "TARGET_OF_ASSAY": "Tyk2 (Homo sapiens (Human))", "IC50": "≤ 0.01 µM"}
{"MOLECULE": "COCCn1cnc(-c2cnc(NC(C)=O)cc2Nc2cc(C)nc(C(C)(F)F)n2)n1 [Example 263]", "TARGET_OF_ASSAY": "Tyk2 (Homo sapiens (Human))", "IC50": "0.1 to 1 µM"}

IC50 reading for CC(=O)Nc1cc(Nc2cc(C)nc(C(C)(F)F)n2)c(OCc2cocn2)cn1 [Example 505] : 0.01 to 0.1 µM

Short answer for COc1nn(C)cc1COc1cnc(NC(C)=O)cc1Nc1cc(C)nc(C(C)(F)F)n1 [Example 512] : IC50 was 0.1 to 1 µM

Value of IC50 reported for the molecule COc1cnc(NC(C)=O)cc1Nc1cc(-c2cc(OC)c3nc(C)cn3c2)nc(C(C)(F)F)n1 [Example 401] is 0.1 to 1 µM

// recorded IC50 for CC(=O)Nc1cc(Nc2cc(C)nc(C(C)(F)F)n2)c(-c2cccc(F)n2)cn1 [Example 623] : ≤ 0.01 µM

The molecule COc1cnc(NC(C)=O)cc1Nc1cc(-c2cccnc2)nc(C(C)(F)F)n1 [Example 388] showed IC50 equal to 0.01 to 0.1 µM

----------
Listed compounds paired with reported pIC50
TARGET_OF_ASSAY: Tyk2 (Homo sapiens (Human), UniProt P29597)
Sequence (P29597 whole entry): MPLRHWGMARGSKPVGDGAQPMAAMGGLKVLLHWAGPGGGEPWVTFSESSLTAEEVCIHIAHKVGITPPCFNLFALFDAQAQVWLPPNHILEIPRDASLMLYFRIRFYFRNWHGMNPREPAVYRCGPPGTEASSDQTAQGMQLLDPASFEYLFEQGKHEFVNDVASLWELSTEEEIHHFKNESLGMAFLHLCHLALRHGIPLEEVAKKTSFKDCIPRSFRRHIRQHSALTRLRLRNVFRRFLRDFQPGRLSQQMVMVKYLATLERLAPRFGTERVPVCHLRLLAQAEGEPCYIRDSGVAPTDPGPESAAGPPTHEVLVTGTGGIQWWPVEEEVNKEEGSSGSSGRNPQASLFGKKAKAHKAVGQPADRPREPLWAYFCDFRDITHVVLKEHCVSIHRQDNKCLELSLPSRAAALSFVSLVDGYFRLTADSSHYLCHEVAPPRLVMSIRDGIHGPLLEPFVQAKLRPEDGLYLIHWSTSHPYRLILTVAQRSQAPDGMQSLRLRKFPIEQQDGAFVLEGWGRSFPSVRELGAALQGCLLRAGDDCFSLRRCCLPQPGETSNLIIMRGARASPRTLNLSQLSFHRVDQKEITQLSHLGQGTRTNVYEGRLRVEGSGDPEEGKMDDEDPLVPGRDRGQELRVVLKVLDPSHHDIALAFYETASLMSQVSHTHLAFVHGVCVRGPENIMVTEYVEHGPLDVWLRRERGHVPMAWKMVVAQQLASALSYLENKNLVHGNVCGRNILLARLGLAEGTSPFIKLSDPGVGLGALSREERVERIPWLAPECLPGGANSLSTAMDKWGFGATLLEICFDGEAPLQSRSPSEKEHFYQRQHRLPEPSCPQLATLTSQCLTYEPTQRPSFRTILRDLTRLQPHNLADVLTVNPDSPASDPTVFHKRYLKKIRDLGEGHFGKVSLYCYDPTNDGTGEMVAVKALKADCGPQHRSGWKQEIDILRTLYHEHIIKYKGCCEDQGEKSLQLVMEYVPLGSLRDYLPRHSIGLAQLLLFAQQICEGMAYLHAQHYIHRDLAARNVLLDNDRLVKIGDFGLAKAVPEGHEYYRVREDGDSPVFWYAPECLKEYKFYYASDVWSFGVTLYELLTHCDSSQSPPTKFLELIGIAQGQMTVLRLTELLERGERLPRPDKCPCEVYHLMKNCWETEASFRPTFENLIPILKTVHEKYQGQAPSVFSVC
MEASUREMENT_PROTOCOL: pSTAT4 Cell Assay (MSD, NK92 cells)
Format: cell-based
pIC50: −log10 of the molar value.

Quick note, pIC50 for CCc1cc(Nc2cc(NC(C)=O)ncc2-c2ccc(F)c(CN3C[C@H]4C[C@@H](C3)O4)n2)nc(C(C)(F)F)n1 landed at ≥ 8.00

Record summary for CC(=O)Nc1cc(Nc2cc(C)nc(C(C)(F)F)n2)c(-c2ccsn2)cn1 : reported pIC50 = ≤ 6.00

GET /value?item= CC(=O)Nc1cc(Nc2ccnc(C(C)(F)F)n2)c(-c2cnc(N3CCC4(COC4)C3)cn2)cn1 &field=pIC50 returns 6.00 to 7.00

----------
TARGET_OF_ASSAY: JH2 domain of human Tyk2 (Homo sapiens (Human))
MEASUREMENT_PROTOCOL: JH2 Biochemical Assay (TR-FRET probe displacement)
Assay type: binding
CONDITION_INFO: TR-FRET probe displacement, JH2 domain of human Tyk2
pIC50: −log10 of the molar value.
Below, each entry is listed with its recorded pIC50.

Consider the reported pIC50 for these compounds:
{"SMILES_REPR": "CC(=O)Nc1cc(Nc2cc(C)nc(C(C)(F)F)n2)c(OCc2conc2C)cn1", "pIC50": "≥ 8.00"}
{"SMILES_REPR": "CC(=O)Nc1cc(Nc2cc(C)nc(C(C)(F)F)n2)c(-c2cc(C(C)C)ncn2)cn1", "pIC50": "≥ 8.00"}

Memo: COc1cc(-c2cnc(NC(C)=O)cc2Nc2cc(C)nc(C(C)(F)F)n2)nc(C)n1 , reported pIC50: ≥ 8.00

So for CC(=O)Nc1cc(Nc2cc(C)nc(C(C)(F)F)n2)c(-c2nc3c(s2)CN(C)CC3)cn1 , the logged pIC50 turned out to be ≥ 8.00

----------
TARGET_OF_ASSAY: Tyk2 (Homo sapiens (Human), UniProt P29597)
MEASUREMENT_PROTOCOL: pSTAT4 Cell Assay (MSD, NK92 cells)
Type: cell-based
CONDITION_INFO: MSD
pIC50: −log10 of the molar value.
QUANTITY_NAME: pIC50

The examples below pair each entry with its known result.
{"SMILES_REPR": "COc1cncc(-c2cnc(NC(C)=O)cc2Nc2ccnc(C(C)(F)F)n2)n1", "pIC50": "6.00 to 7.00"}
{"SMILES_REPR": "COc1cc(-c2cnc(NC(C)=O)cc2Nc2ccnc(C(C)(C)F)n2)ncn1", "pIC50": "7.00 to 8.00"}
{"SMILES_REPR": "CC(=O)Nc1cc(Nc2cc(C)nc(C(C)(F)F)n2)c(-c2cc(N(C)C)ccn2)cn1", "pIC50": "≤ 6.00"}
{"SMILES_REPR": "CC(=O)Nc1cc(Nc2cc(C)nc(C(C)(F)F)n2)c(OCc2ccn(C)n2)cn1", "pIC50": "7.00 to 8.00"}
{"SMILES_REPR": "CC(=O)Nc1cc(Nc2cc(C)nc(C(C)(F)F)n2)c(OCc2cccnc2)cn1", "pIC50": "7.00 to 8.00"}

response.value for COCC1(COc2cnc(NC(C)=O)cc2Nc2cc(C)nc(C(C)(F)F)n2)CC1 (field: pIC50) = 7.00 to 8.00

COc1cc(-c2cnc(NC(C)=O)cc2Nc2cc(C)nc(C(C)(F)F)n2)nc(C)n1 has a reported pIC50 of 7.00 to 8.00

CC(=O)Nc1cc(Nc2ccnc(C(C)(F)F)n2)c(-c2ncc(F)cn2)cn1 has a reported pIC50 of 7.00 to 8.00

----------
TARGET_OF_ASSAY: Tyk2 (Homo sapiens (Human))
MEASUREMENT_PROTOCOL: pSTAT4 Cell Assay (MSD, NK92 cells)
Assay type: cell-based
CONDITION_INFO: MSD
pIC50: −log10 of the molar value.
# pIC50 per record follows

{"COMPOUND": "COc1cnc(NC(C)=O)cc1Nc1cc(-c2cncc(C)c2)nc(C(C)(F)F)n1 [Example 389]", "pIC50": "7.00 to 8.00"}
{"COMPOUND": "CC(=O)Nc1cc(Nc2cc(OC3CC3)nc(C(C)(F)F)n2)c(OCc2ccc(F)c(F)c2)cn1 [Example 349]", "pIC50": "≥ 8.00"}
{"COMPOUND": "CC(=O)Nc1cc(Nc2cc(C)nc(C(C)(F)F)n2)c(-c2nccs2)cn1 [Example 605]", "pIC50": "7.00 to 8.00"}
{"COMPOUND": "CC(=O)Nc1cc(Nc2cc(C)nc(C(C)(F)F)n2)c(OCc2cc(C)on2)cn1 [Example 497]", "pIC50": "7.00 to 8.00"}
{"COMPOUND": "CC(=O)Nc1cc(Nc2cc(C)nc(C(C)(F)F)n2)c(OC[C@H]2C[C@H]2CF)cn1 (racemic) [Example 428]", "pIC50": "7.00 to 8.00"}

Lab note: compound COc1cnc(NC(C)=O)cc1Nc1cc(C)nc(C(C)(F)F)n1 [Example 46] tested on Tyk2 (Homo sapiens (Human)); recorded pIC50 was 7.00 to 8.00

So the reported pIC50 for CC(=O)Nc1cc(Nc2cc(C)nc(C(C)(F)F)n2)c(-c2cccc(CN3CCOCC3)n2)cn1 [Example 650] , on Tyk2 (Homo sapiens (Human)), turned out to be ≥ 8.00

With Tyk2 (Homo sapiens (Human)) as the test system, CC(=O)Nc1cc(Nc2cc(C)nc(C(C)(F)F)n2)c(OCC[C@@H](C)F)cn1 [Example 336] showed pIC50 of 7.00 to 8.00

The value of pIC50 recorded for CC(=O)Nc1cc(Nc2cc(C)nc(C(C)(F)F)n2)c(Oc2cncc(C)n2)cn1 [Example 98] when tested on Tyk2 (Homo sapiens (Human)) reads ≤ 6.00

Fill in: Tyk2 (Homo sapiens (Human)) pIC50 for COCCn1ncc(-c2cnc(NC(C)=O)cc2Nc2ccnc(C(C)(F)F)n2)n1 [Example 710] = ≥ 8.00
